Data provenance: patent EP4818205A1

- Measured Target: T1, recombinant protein His-fib-mfTL1A (Macaca fascicularis)
- T1 construct: also called monkey TL1A; Macaca fascicularis TL1A
- T1 chain: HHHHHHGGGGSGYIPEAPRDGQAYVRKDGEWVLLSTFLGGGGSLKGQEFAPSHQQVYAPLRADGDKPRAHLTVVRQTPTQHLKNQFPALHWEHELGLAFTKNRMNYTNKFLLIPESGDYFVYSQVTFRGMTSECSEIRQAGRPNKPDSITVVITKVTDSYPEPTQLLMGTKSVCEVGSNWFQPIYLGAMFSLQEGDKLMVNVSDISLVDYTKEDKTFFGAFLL
- Assay: SPR, Biacore T200; antibody captured by anti-human IgG (Fc), TL1A as analyte; 1:1 model
Experimental Readout: Kd (nM)
All answers are understood in nM, so give the number only.

mouse anti-TL1A monoclonal antibody S9H9 (antibody, V domains shown) VH: QVQLKQSGAELVRPGTSVKISCKASGYAFTNYWLGWIKQRPGHGLEWIGDIHPGRGNIFYNEKFKGKATLTADKSSSTAYMQLSSLTSEDSAVYFCAEGYDTFDYWGQGTTLTVSA VL: DIVMTQSHKFMSTSVGDRVSITCKASQDVSTAVAWYQQKPGQSPKLLIYSASYRYTGVPDRFTGSGSGTDFTFTISSVQAEDLAVYYCQQHYSTPWTFGGGTKLEMKR = 0.0603
mouse anti-TL1A monoclonal antibody S4D3 (antibody, V domains shown) VH: QVQLKESGSDLATPGASVKLSCKVSGYTFTKYDINWVRQRPEQGLEWIGWIFPGDGRTDYNEKFKGKATLTIDTSSSTAYMQLSRLTSEDSAVYFCARYGYALDYWGQGTSVTVSS VL: DVVMTQTPLSLPVSLGDQASISCRSSQNIVHSNGDTYLEWFLQKPGQSPKLLIYKVSNRFSGVPDRFSGSGSGTDFTLKISRVEAEDLGVYYCFQGSHFPYTFGGGTKLEMKR = 0.0489
anti-TL1A monoclonal antibody RVT-3101 (antibody, V domains shown) VH: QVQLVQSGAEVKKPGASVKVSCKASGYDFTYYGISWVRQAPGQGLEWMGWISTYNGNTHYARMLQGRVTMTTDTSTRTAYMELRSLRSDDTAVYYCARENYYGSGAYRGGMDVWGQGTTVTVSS VL: EIVLTQSPATLSLSPGERATLSCRASQSVSSYLAWYQQKPGQAPRLLIYDASNRATGIPARFSGSGSGTDFTLTISSLEPEDFAVYYCQQRSNWPWTFGQGTKVEIK = 0.0275

Field: next binder
Tell me the measured Kd of anti-TL1A monoclonal antibody PRA023 (antibody, V domains shown) VH: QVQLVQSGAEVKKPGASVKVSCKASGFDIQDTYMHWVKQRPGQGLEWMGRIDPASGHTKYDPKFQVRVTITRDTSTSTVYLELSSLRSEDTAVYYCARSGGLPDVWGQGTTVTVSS VL: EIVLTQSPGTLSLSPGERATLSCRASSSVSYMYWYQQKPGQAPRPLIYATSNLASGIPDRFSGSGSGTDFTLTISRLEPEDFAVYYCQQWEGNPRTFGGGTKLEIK , please.
0.0802
